assayed-system: EGFR L858R T790M L792H (Homo sapiens, UniProt P00533, L792H/L858R/T790M)
Construct: expressed in transfected cells; host or cells: Ba/F3
measurement-notes: Ba/F3 drug screening, Cell Titer Glo, IC50 Mut/WT
Assay type: cell-based
experimental-conditions: T790M-like-3S, 72 hours
measured-metric: ratio of IC50 for cells with mutant EGFR to IC50 for cells with wildtype EGFR (Mut/WT)

{"columns": ["line-notation", "test-result"],
 "data": [
  ["C=CC(=O)Nc1cccc(Oc2nc(Nc3ccc(N4CCN(C)CC4)cc3)nc3ccsc23)c1", 0.004757],
  ["C=CC(=O)Nc1cc(Nc2nccc(-n3cc(CN(C)C)c(-c4ccccc4)n3)n2)c(OC)cc1N1CCOCC1", 0.0005009],
  ["CNC(=O)CN1CCC(Oc2cc3c(Nc4cccc(Cl)c4F)ncnc3cc2OC)CC1", 54.78],
  ["C=CC(=O)N[C@H]1C=C(C)c2c(-c3cnc4ccccc4c3)c3c(N)ncnc3n2C1", "9.536E−05"]
]}

###

assayed-system: EGFR L858R T790M L792H (Homo sapiens, UniProt P00533, L792H/L858R/T790M)
Construct: expressed in transfected cells; host or cells: Ba/F3
measurement-notes: Ba/F3 drug screening, Cell Titer Glo, IC50 Mut/WT
Format: cell-based
experimental-conditions: T790M-like-3S, 72 hours
Could you mark each record true if its ratio of IC50 for cells with mutant EGFR to IC50 for cells with wildtype EGFR (Mut/WT) falls strictly under 5, and false if it equals or exceeds it?

{"columns": ["compound", "qualitative-label"],
 "data": [
  ["CN(C)C/C=C/C(=O)Nc1cc2c(Nc3ccc(Cl)c(Br)c3)ncnc2cn1 [Tarlox-TKI]", "false"],
  ["Cc1cc(C(=O)Nc2nc3cccc(Cl)c3n2[C@@H]2CCCCN(C(=O)/C=C/CN(C)C)C2)ccn1 [Nazartinib]", "true"],
  ["C=CC(=O)Nc1cc(Nc2ncc(C(=O)OC(C)C)c(-c3cn(C)c4ccccc34)n2)c(OC)cc1N(C)CCN(C)C [TAK-788 (mobocertinib), mobocertinib]", "true"],
  ["C=CC(=O)N1CC[C@@H](Oc2nc(Nc3ccc(N4CCC(N5CCN(C)CC5)CC4)cc3)c(C(N)=O)nc2CC)C1 [Naquotinib]", "true"],
  ["C=CC(=O)Nc1cc(Nc2nccc(-c3c[nH]c4ccccc34)n2)c(OC)cc1N(C)CCN(C)C [AZ5104]", "true"],
  ["COc1cc2ncnc(Nc3ccc(F)c(Cl)c3)c2cc1NC(=O)/C=C/CN1CCCCC1 [Dacomitinib]", "false"],
  ["COc1cc2ncnc(Nc3cccc(Cl)c3F)c2cc1OC(=O)N1CCN(C)C[C@H]1C [AZD3759]", "false"]
]}

###

Listing of entries alongside the reported ratio of IC50 for cells with mutant EGFR to IC50 for cells with wildtype EGFR (Mut/WT).
assayed-system: EGFR S768dupSVD V769M (Homo sapiens, UniProt P00533, INS768MDS/V769M)
Construct: expressed in transfected cells; host or cells: Ba/F3 cells, retroviral pBabe-Puro vector (vector made by GeneScript from EGFR S768dupSVD, c.2305G > A)
measurement-notes: Ba/F3 drug screening, Cell Titer Glo, IC50 Mut/WT
Assay type: cell-based
experimental-conditions: Ex20, 72 hours
measured-metric: ratio of IC50 for cells with mutant EGFR to IC50 for cells with wildtype EGFR (Mut/WT)

{"columns": ["line-notation", "assayed-system", "test-result"],
 "data": [
  ["CNC(=O)CN1CCC(Oc2cc3c(Nc4cccc(Cl)c4F)ncnc3cc2OC)CC1", "EGFR S768dupSVD V769M (Homo sapiens, UniProt P00533, INS768MDS/V769M)", 1.596],
  ["CN(C)C/C=C/C(=O)Nc1cc2c(Nc3ccc(Cl)c(Br)c3)ncnc2cn1", "EGFR S768dupSVD V769M (Homo sapiens, UniProt P00533, INS768MDS/V769M)", 0.33],
  ["COc1cc2ncnc(Nc3cccc(Cl)c3F)c2cc1OC(=O)N1CCN(C)C[C@H]1C", "EGFR S768dupSVD V769M (Homo sapiens, UniProt P00533, INS768MDS/V769M)", 1.659],
  ["Cc1cc(C(=O)Nc2nc3cccc(Cl)c3n2[C@@H]2CCCCN(C(=O)/C=C/CN(C)C)C2)ccn1", "EGFR S768dupSVD V769M (Homo sapiens, UniProt P00533, INS768MDS/V769M)", 0.3262],
  ["C=CC(=O)N[C@H]1C=C(C)c2c(-c3cnc4ccccc4c3)c3c(N)ncnc3n2C1", "EGFR S768dupSVD V769M (Homo sapiens, UniProt P00533, INS768MDS/V769M)", 0.02679],
  ["C=CC(=O)Nc1cc(Nc2nccc(-n3cc(CN(C)C)c(-c4ccccc4)n3)n2)c(OC)cc1N1CCOCC1", "EGFR S768dupSVD V769M (Homo sapiens, UniProt P00533, INS768MDS/V769M)", 2.831],
  ["COc1cc2ncnc(Nc3ccc(F)c(Cl)c3)c2cc1NC(=O)/C=C/CN1CCCCC1", "EGFR S768dupSVD V769M (Homo sapiens, UniProt P00533, INS768MDS/V769M)", 3.097],
  ["C=CC(=O)N1CC[C@@H](Oc2nc(Nc3ccc(N4CCC(N5CCN(C)CC5)CC4)cc3)c(C(N)=O)nc2CC)C1", "EGFR S768dupSVD V769M (Homo sapiens, UniProt P00533, INS768MDS/V769M)", 1.96],
  ["C=CC(=O)Nc1cccc(Oc2nc(Nc3ccc(N4CCN(C)CC4)cc3)nc3ccsc23)c1", "EGFR S768dupSVD V769M (Homo sapiens, UniProt P00533, INS768MDS/V769M)", 0.5379],
  ["C=CC(=O)Nc1cc(Nc2ncc(C(=O)OC(C)C)c(-c3cn(C)c4ccccc34)n2)c(OC)cc1N(C)CCN(C)C", "EGFR S768dupSVD V769M (Homo sapiens, UniProt P00533, INS768MDS/V769M)", 0.5446],
  ["C=CC(=O)Nc1cc(Nc2nccc(-c3c[nH]c4ccccc34)n2)c(OC)cc1N(C)CCN(C)C", "EGFR S768dupSVD V769M (Homo sapiens, UniProt P00533, INS768MDS/V769M)", 0.3864]
]}

###

assayed-system: EGFR A763insLQEA (Homo sapiens, UniProt P00533, INS763LQEA)
Construct: expressed in transfected cells; host or cells: Ba/F3 cells, retroviral pBabe-Puro vector
measurement-notes: Ba/F3 drug screening, Cell Titer Glo, IC50 Mut/WT
Assay type: cell-based
experimental-conditions: Classical-Like, 72 hours
measured-metric: ratio of IC50 for cells with mutant EGFR to IC50 for cells with wildtype EGFR (Mut/WT)

{"columns": ["line-notation", "test-result"],
 "data": [
  ["C=CC(=O)N1CC[C@@H](Oc2nc(Nc3ccc(N4CCC(N5CCN(C)CC5)CC4)cc3)c(C(N)=O)nc2CC)C1", 0.3419],
  ["C=CC(=O)Nc1cc(Nc2nccc(-n3cc(CN(C)C)c(-c4ccccc4)n3)n2)c(OC)cc1N1CCOCC1", 0.1304],
  ["C=CC(=O)Nc1cc(Nc2nccc(-c3c[nH]c4ccccc34)n2)c(OC)cc1N(C)CCN(C)C", 0.03029],
  ["CNC(=O)CN1CCC(Oc2cc3c(Nc4cccc(Cl)c4F)ncnc3cc2OC)CC1", 0.004226],
  ["COc1cc2ncnc(Nc3cccc(Cl)c3F)c2cc1OC(=O)N1CCN(C)C[C@H]1C", 0.02905],
  ["CN(C)C/C=C/C(=O)Nc1cc2c(Nc3ccc(Cl)c(Br)c3)ncnc2cn1", 0.0269],
  ["C=CC(=O)Nc1cccc(Oc2nc(Nc3ccc(N4CCN(C)CC4)cc3)nc3ccsc23)c1", 0.07483],
  ["C=CC(=O)N[C@H]1C=C(C)c2c(-c3cnc4ccccc4c3)c3c(N)ncnc3n2C1", 0.005254]
]}

###

assayed-system: EGFR S768I V774M (Homo sapiens, UniProt P00533, S768I/V774M)
Construct: host or cells: Ba/F3
measurement-notes: Ba/F3 drug screening, Cell Titer Glo, IC50 Mut/WT
Format: cell-based
experimental-conditions: PACC; S768I V774M; Ba/F3; 72 hours
Listing of entries alongside the reported ratio of IC50 for cells with mutant EGFR to IC50 for cells with wildtype EGFR (Mut/WT).
measured-metric: ratio of IC50 for cells with mutant EGFR to IC50 for cells with wildtype EGFR (Mut/WT)

{"columns": ["line-notation", "test-result"],
 "data": [
  ["CNC(=O)CN1CCC(Oc2cc3c(Nc4cccc(Cl)c4F)ncnc3cc2OC)CC1", 0.2648],
  ["COc1cc2ncnc(Nc3ccc(F)c(Cl)c3)c2cc1NC(=O)/C=C/CN1CCCCC1", 0.1407],
  ["CN(C)C/C=C/C(=O)Nc1cc2c(Nc3ccc(Cl)c(Br)c3)ncnc2cn1", 0.2117],
  ["COc1cc2ncnc(Nc3cccc(Cl)c3F)c2cc1OC(=O)N1CCN(C)C[C@H]1C", 0.2555]
]}
